molecular target: Cytochrome P450 2C9 (Homo sapiens) (UniProt P11712); test: Cytochrome panel assay with activity outcomes; details: recombinant CYP, pro-luciferin dealkylation, luminescence, p450-cyp2c9; series mostly up to 57.1 µM
Sequence (P11712 whole entry, looked up): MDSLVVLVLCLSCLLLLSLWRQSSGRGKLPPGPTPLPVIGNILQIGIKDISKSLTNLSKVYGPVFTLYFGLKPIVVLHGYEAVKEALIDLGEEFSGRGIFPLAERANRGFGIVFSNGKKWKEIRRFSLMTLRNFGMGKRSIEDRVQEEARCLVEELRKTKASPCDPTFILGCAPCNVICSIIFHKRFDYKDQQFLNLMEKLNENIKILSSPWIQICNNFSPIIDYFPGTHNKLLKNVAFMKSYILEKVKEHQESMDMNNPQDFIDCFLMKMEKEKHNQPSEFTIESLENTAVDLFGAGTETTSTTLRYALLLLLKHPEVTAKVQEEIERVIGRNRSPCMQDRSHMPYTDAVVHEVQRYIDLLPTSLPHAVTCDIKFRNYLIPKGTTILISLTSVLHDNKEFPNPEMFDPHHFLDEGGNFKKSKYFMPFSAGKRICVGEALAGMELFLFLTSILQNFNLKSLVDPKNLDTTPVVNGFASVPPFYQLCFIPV
Out of some 16,000 compounds screened, about 4,000 (25%) were called active. Another 26% or so got no clear call; they are omitted. The call rests on the fitted dose curve; in most records, active means well fitted curve in the direction sought with a large enough effect; inconclusive means small, poorly fitted or top-dose-only effect, or effect the other way; inactive means no such curve, though single readings can be large or run the other way. Only a sample is shown.
Pick from 1 for active, 0 for inactive when you respond.

Record request — test call for `Clc1ccccc1-c1nc(-c2ccccc2)n[nH]1`
1

// param item: `Cc1cc(OC(=O)c2ccccc2Cl)cc(=O)n1C` ; yields the recorded call
1

Hi, sorry to bother you, what did the test record for `CN(C)CCO[C@](C)(c1ccccc1)c1ccccn1` ?
0

Hey, what did the test say about `COC(=O)C(C)(C(=O)OC)c1ccc([N+](=O)[O-])cn1` ?
0

Entry CC(=O)C1=C(O)C=C(c2ccco2)CC1c1ccco1 (stereo unspecified) : call = ?
1

Could you check what this test reported for `Cc1cc(OC(=O)c2ccc(Cl)cc2)cc(=O)n1C` ?
1

Hi, sorry to bother you, what did the test record for `Brc1ccc(-c2nnc(-c3cccc(Br)c3)o2)cc1` ?
0

Test call for this compound, please: Cc1ccc(-c2ccc(/C=N/N3C(=O)C4C5C=CC(C6CC56)C4C3=O)o2)c([N+](=O)[O-])c1 (stereo unspecified)
1

Fill in: this test's call for `Cc1cc(-c2ccc(/C=N/n3cnnc3)o2)c([N+](=O)[O-])cc1C` is ___
1

Hey, what did the test say about `Cc1ccccc1-c1cc(C(=O)n2cccn2)c2cc(Cl)ccc2n1` ?
1

Give the logged outcome of this assay for the following compound: COC(=O)C(NC(=O)c1ccc(F)cc1)(Nc1ncc(S(=O)(=O)c2ccc([N+](=O)[O-])cc2)s1)C(F)(F)F (stereo unspecified)
1

====

molecular target: Cytochrome P450 2C9 (Homo sapiens); assay: Cytochrome panel assay with activity outcomes; conditions: recombinant CYP, pro-luciferin dealkylation, luminescence, p450-cyp2c9; series mostly up to 57.1 µM
The campaign covered roughly 16,000 compounds. About 4,000 (25%) were called active. Not shown: some 26% with an inconclusive outcome. Calls come from the whole dose curve; as a rule, active = well fitted curve in the direction sought with a large enough effect; inconclusive = small, poorly fitted or top-dose-only effect, or effect the other way; inactive = no such curve, though single readings can be large or run the other way. These entries were drawn from the full list.
Pick one and only one: 1 = active, 0 = inactive

Recorded test call requested for `Cc1sc(N/N=C/c2cccnc2)nc1-c1ccccc1`
1

Hello, I am checking results. What call was entered for `CN(C)c1ncc2nc(-c3cc(F)cc(F)c3)c(=O)n(C[C@H]3CCCO3)c2n1` ?
0

Status in this test for CCN(CC)C(=O)C1CC(=O)N(c2ccc(OC)cc2)C1c1ccc(OC)cc1 (stereo not drawn) ?
0

Dear all, I need the recorded test outcome for `Cc1cccc(NC(=S)NNC(=O)CCn2cc(C)cn2)c1` , thank you.
0

I would be grateful if you could indicate the recorded call for Cc1ccc(C2NC(c3ccc(C)cc3)C(C)C(=NO)C2C)cc1 (stereo not drawn) .
1

Returns: the outcome recorded for `COc1ccc(C(=O)NC(=S)NNC(=O)CCc2ccccc2)cc1` in this assay.
1

Fill in: this test's call for `COCCNC(=O)CCn1nc(-c2ccc(Cl)cc2)ccc1=O` is ___
0

Per the records of this test, what outcome belongs to `CCOc1cc(NC(=S)Nc2ccccc2)c(OCC)cc1NC(=O)c1ccc(OC)cc1` ?
1

Dear colleague, could you share the recorded outcome for `COc1ccc(C(=O)NNC(=S)NC(=O)c2ccco2)cc1` when you have a moment?
1

So what was the verdict on COc1ccc(N2CC(C(=O)Nc3cc(C)on3)CC2=O)cc1 (stereo not drawn) in this test?
1

Each compound tested received a call. Report the one for `Cc1ccc(OCC(=O)NNC(=O)CCc2ccccc2)cc1` .
0

Assay result, entry `COc1ccc(NC(=O)N2CC3(CCN(C(=O)c4ccco4)CC3)C2)cc1` — outcome?
0

Lab log entry: `O=C(Nc1ccccc1N1CCOCC1)c1cnccn1` — outcome as called in the assay?
1

What did this assay record as the result for `CCNc1ncc2nc(-c3cccc(C#N)c3)c(=O)n(C)c2n1` ?
0

What call does the record list for `CCCCC#Cc1nc(NC)c2ncn([C@@H]3O[C@@H](CO)[C@H](O)[C@H]3O)c2n1` ?
1

Short answer needed: outcome of this test for `COc1ccc(NC(=O)N2CCC3(CC2)CCN(C(=O)c2ccco2)CC3)cc1` ?
0

Which outcome was assigned to `O=C1c2ccccc2C(=O)N1CC(=O)N1c2ccccc2CCc2ccccc21` in this test?
1

Lab log entry: `Cc1cnn(-c2cc(N/N=C/c3ccccc3)ncn2)c1` — outcome as called in the assay?
0

GET /call?item= `O=C(NCc1ccccc1Cl)c1cnccn1` returns the recorded outcome of this test.
0

Could you please tell me the result logged for `CNC(=O)c1ccc(-c2sc3nc(N4CCOCC4)c4c(c3c2N)CC(C)(C)OC4)o1` in this assay?
1

Dear colleague, could you share the recorded outcome for `CCN(CC)CCC(=O)Nc1ccc2c(c1)N(C(=O)CN(CC)CC)c1ccccc1CC2` when you have a moment?
0

Dear all, I need the recorded test outcome for `CNc1ncnc2c1ncn2[C@@H]1O[C@H](CO)[C@@H](O)[C@@H]1O` , thank you.
0

# fetch the recorded call for `O=C(NC(=S)NNC(=O)c1cccs1)c1ccco1` here
1

====

biological target: Cytochrome P450 2C9 (Homo sapiens) (UniProt P11712); test: Cytochrome panel assay with activity outcomes; details: recombinant CYP, pro-luciferin dealkylation, luminescence, p450-cyp2c9; series mostly up to 57.1 µM; on activity, negative = inhibition: on the % scale 0 is the no-effect control and ±100 the full control effect
Among all 16,000 compounds or so, about 4,000 (25%) were called active. Not shown: some 26% with an inconclusive outcome. Not all results are given here.
Would you mind telling me the reported activity, negative = inhibition of each entry?

Form field activity, negative = inhibition, entry `O=C(O)C[C@H]1OCC=C2C[N@@+]3([O-])CC[C@]45c6ccccc6N[C@@H]4[C@@H]1[C@H]2C[C@H]53` : 5.86% [at 11.4 µM] (inactive)

Input `CC(C)c1cc(CN(C)C)c(O)c(C(C)(C)C)c1` . Output activity, negative = inhibition: 1.03% [at 11.4 µM] (inactive)

The compound listed as `CO/N=C1/c2cc(OC)ccc2O[C@@H](c2cccc(OC)c2)[C@H]1O` has a reported activity, negative = inhibition of -0.557% [at 11.4 µM] (inactive)

Memo: `C/C(CCN1CCCCc2nc(C)c(C)cc21)=N\OC[C@@H](O)COCc1ccco1` , reported activity, negative = inhibition: -10.7% [at 11.4 µM] (inactive)

Form field activity, negative = inhibition, entry `CN1CCN(c2ncnc3ccc(-c4ccccc4Cl)cc23)CC1` : -20.9% [at 2.29 µM] (inactive)

Lab note: `Cc1cc(C)c(O)c(Cc2cccc(Cc3cc(C)cc(C)c3O)c2O)c1` gave activity, negative = inhibition of 11.7% [at 11.4 µM] (inactive)

Value of activity, negative = inhibition reported for the compound `CC(=O)OC[C@H]1O[C@@H](O/N=C(\C)CCC(=O)OC[C@@H]2O[C@H](C#Cc3ccccc3)C=C[C@@H]2Oc2ccc(C)cc2)[C@H](OC(C)=O)[C@@H](OC(C)=O)[C@H]1OC(C)=O` is -6.45% [at 11.4 µM] (inactive)

Just so you know, measured activity, negative = inhibition for `CCOC(=O)N/N=C1/C[C@@H](O)[C@@H](O)[C@@H]2[C@@H]3C(=O)N(c4cccc(Oc5ccccc5)c4)C(=O)[C@H]3CC[C@H]12` came out at 7.2% [at 11.4 µM] (inactive)

The compound listed as `C[C@H]1/C=C\CC(=O)OC[C@H](C)C(=O)N2CCC[C@@H]2C(=O)OC1` shows activity, negative = inhibition equal to 4.32% [at 11.4 µM] (inactive)

====

molecular target: Cytochrome P450 2C9 (Homo sapiens); experiment: Cytochrome panel assay with activity outcomes; details: recombinant CYP, pro-luciferin dealkylation, luminescence, p450-cyp2c9; series mostly up to 57.1 µM
Screen size: about 16,000 compounds; about 4,000 (25%) were called active. Not shown: some 26% with an inconclusive outcome. Calls follow the shape of the dose curve; as a rule, active = well fitted curve in the direction sought with a large enough effect; inconclusive = small, poorly fitted or top-dose-only effect, or effect the other way; inactive = no such curve, though single readings can be large or run the other way. Not all results are given here.
I would appreciate it if you answered using one of these outcomes: t for active, f for inactive

Recorded test outcome, item `CCOC(=O)C1CCN(C(=O)C2CCN(S(=O)(=O)N3CCCC3)CC2)CC1`
f

Status in this test for `COc1ccc(-c2nc3cnc(N4CCN(C)CC4)nc3n(C3CC3)c2=O)cc1` ?
f

// return assay outcome for `Nc1ncnc2c1ncn2C1CCCC1`
f

Please share the test call associated with CC(=O)Oc1ccc2ccccc2c1C(NC(=O)Cc1ccccc1)c1ccc(Cl)cc1 (stereo not given) .
t

Call for entry `COc1ccc(-c2nc3cnc(N4CCNCC4)nc3n(C)c2=O)cc1` :
f

Just curious, what result did `CC(C)(C)C(=O)N1CCC(O)(CS(=O)(=O)Cc2ccc(Cl)cc2)CC1` get here?
f

Identify the outcome logged in this assay for the compound shown: Cc1ccc(N2C(=O)CSC2c2cccnc2)cc1F (stereo not given)
f

Status in this test for `CCCC[C@H]1C[C@@H]1[C@@H]1N(P(=O)(c2ccccc2)c2ccccc2)[C@](CO)(c2ccccc2)CC12CC2` ?
t

# fetch the recorded call for `COc1ccc(-n2c(=O)c(C)nc3cnc(OC)nc32)cc1` here
f

Hi, sorry to bother you, what did the test record for `O=c1c(-c2cc(F)cc(F)c2)nc2cnc(N3CCNCC3)nc2n1C1CC1` ?
t
